molecular target: CD137 (UniProt Q07011 24-255, limits assumed); assay: cell-based or functional assay
Sequence (Q07011 24-255 limits assumed): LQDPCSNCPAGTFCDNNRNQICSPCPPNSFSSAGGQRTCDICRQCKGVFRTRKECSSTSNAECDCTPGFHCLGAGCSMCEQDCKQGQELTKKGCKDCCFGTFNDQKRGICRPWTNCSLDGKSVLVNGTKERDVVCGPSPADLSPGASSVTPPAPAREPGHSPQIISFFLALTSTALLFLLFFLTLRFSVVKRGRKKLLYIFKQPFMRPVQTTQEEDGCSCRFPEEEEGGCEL
*1 amine or outer side, *2 acyl side, *3 side chain or, on linkers, in order; H or OH if unused. Bridges are numbered along the chain shown (N, C = ends). Roman numbers before positions name the chains, in order. Where no end group is shown, it is not given here. [ ]: non-standard residue; d: D form. The star is where a group is joined. TATA = O=C(CC[*:1])N1CN(C(=O)CC[*:2])CN(C(=O)CC[*:3])C1; 1Nal = N[C@@H](Cc1cccc2ccccc12)C(=O)O; Hyp = O=C(O)[C@@H]1C[C@@H](O)CN1; hArg = N=C(N)NCCCC[C@H](N)C(=O)O; tBuAla = CC(C)(C)C[C@H](N)C(=O)O; Nle = CCCC[C@H](N)C(=O)O; Pent4ynoyl = C#CCCC(=O)*
endpoint label: Fold improvement in Emax over BCY10000 on same plate (fold)

binder	reported
BCY12583 (linker I:1-I:5-I:15, II:1-II:8-II:15 via TATA; not fully specified (bridges); printed as CP[1Nal][dE]CL[HArg]DWSTP[HyP]WC / Ac-C[tBuAla]PE[D-Lys(PYA)]PYCFADPY[Nle]CA; also: chain 1 N-terminus joined to chain 2 dLys(PYA) by Peg5 linker (heterotandem complex)) peptide 1: CP[1Nal][dE]CL[hArg]DWSTP[Hyp]WC peptide 2: Ac-C[tBuAla]PE[dK](Pent4ynoyl)PYCFADPY[Nle]CA	1.47
